The measurements presented in this section are drawn from the supplement of paper PMC8253809.

So I've got a bunch of compounds here, and I need their growth inhibition values.
# System: DIPGX29 (H3.3 K27M diffuse intrinsic pontine glioma line)
# test.summary: growth inhibition (% activity, log2 RLU normalised to DMSO / staurosporine); higher = more growth inhibition
# test.settings: 33 µM
In your response, the unit should come after the numeric value.

These solved cases illustrate the format of a correct answer.
O=c1[nH]c2ccccc2n1CCCN1CCC(n2c(=O)[nH]c3cc(Cl)ccc32)CC1: 1.24%
C=C(C)[C@@H]1[C@H]2OC(=O)[C@@H]1[C@]1(O)C[C@H]3O[C@]34C(=O)O[C@H]2[C@]14C: -0.435%
CCOC(=O)c1cncn1[C@H](C)c1ccccc1: 1.12%

Would you mind listing growth inhibition for each of the following compounds?
1. CNC1CC(N)C(O)C(OC2OC(CO)C(O)C3OC4(OC(C(N)CO)C(O)C(O)C4O)OC23)C1O (stereo not given)
2. CNC(=O)Oc1ccc2c(c1)[C@]1(C)CCN(C)[C@@H]1N2C

**A:**
1: 4.68%; 2: -0.0328%

###

# Test system: DIPGX7 (H3.3 K27M diffuse intrinsic pontine glioma line)
# test.summary: growth inhibition (% activity, log2 RLU normalised to DMSO / staurosporine); higher = more growth inhibition
# test.settings: 33 µM
measured.quantity: growth inhibition (%)
Give bare numbers, in %.

These solved cases illustrate the format of a correct answer.
Cc1cccc(Cc2c[nH]cn2)c1C: 4.17
CC(=O)Nc1cc([As](=O)(O)O)ccc1O: -1.33
N.N.[Cl][Pt][Cl]: 0.191

Would you mind listing growth inhibition for each of the following compounds?
1. CCC1(C)CC(=O)NC(=O)C1
2. COc1ccc(OC)c(C(O)C(C)N)c1 (stereo unspecified)
3. C#C[C@]1(O)C=C[C@H]2[C@@H]3CCC4=CC(=O)CC[C@@H]4[C@H]3CC[C@@]21CC
4. COc1ccc(C(CN(C)C)C2(O)CCCCC2)cc1 (stereo unspecified)
5. Cc1cccc(C)c1NC1=NCCCS1

**A:**
4.09
-0.264
0.599
1.7
-0.135

Would you mind listing growth inhibition for each of the following compounds?
1. O=C1CC[C@@]2(O)[C@H]3Cc4ccc(O)c5c4[C@@]2(CCN3CC2CC2)[C@H]1O5
2. CCCN1C[C@H](CSC)C[C@@H]2c3cccc4[nH]cc(c34)C[C@H]21
3. C[N+](C)(C)CCCCCCCCCC[N+](C)(C)C
4. NCCc1c[nH]c2ccc(O)cc12

**A:**
1: 2.36; 2: -0.373; 3: 1.7; 4: -2.87

Would you mind listing growth inhibition for each of the following compounds?
1. OC(c1ccccc1)(c1ccccc1)C1CCNCC1
2. COC(=O)C1=CCCN(C)C1
3. NCC(O)c1ccc(O)cc1 (stereo unspecified)

**A:**
[-0.982, 0.892, 0.265]

###

# System: HGGX39 (paediatric high-grade glioma line)
# test.summary: growth inhibition (% activity, log2 RLU normalised to DMSO / staurosporine); higher = more growth inhibition
# test.settings: 33 µM
measured.quantity: growth inhibition (%)
Give bare numbers, in %.

CN(C)[C@@H]1C(=O)C(C(N)=O)=C(O)[C@@]2(O)C(=O)C3=C(O)c4c(O)ccc(Cl)c4[C@@](C)(O)[C@H]3C[C@@H]12: 4.59

Would you mind listing growth inhibition for each of the following molecules?
1. CN1C(=O)COc2c(C(=O)NC3CN4CCC3CC4)cc(Cl)cc21 (stereo not given)
2. O=S(=O)(F)Cc1ccccc1
3. C[C@@H]1CC[C@H]2[C@@H](C)C(=O)O[C@@H]3O[C@@]4(C)CC[C@@H]1[C@]32OO4
4. Cc1c(N)nc(C(CC(N)=O)NCC(N)C(N)=O)nc1C(=O)NC(C(=O)NC(C)C(O)C(C)C(=O)NC(C(=O)NCCc1nc(-c2nc(C(=O)NCCC[S+](C)C)cs2)cs1)C(C)O)C(O[C@@H]1O[C@@H](CO)[C@@H](O)[C@H](O)[C@@H]1O[C@H]1O[C@H](CO)[C@@H](O)[C@H](OC(N)=O)[C@@H]1O)c1cnc[nH]1 (stereo not given in full)
5. C[C@]12CC[C@H](O)CC1=CC[C@@H]1[C@@H]2CC[C@]2(C)C(=O)CC[C@@H]12
6. C[C@@H]1O[C@@H](O[C@H]2C[C@@H](O)[C@]3(CO)[C@H]4[C@H](O)C[C@]5(C)[C@@H](C6=CC(=O)OC6)CC[C@]5(O)[C@@H]4CC[C@]3(O)C2)[C@H](O)[C@H](O)[C@H]1O

**A:**
1. 2.32
2. -0.194
3. 4.98
4. 8.29
5. 3.44
6. 54.5

Would you mind listing growth inhibition for each of the following molecules?
1. CC(=O)OC1CN2CCC1CC2 (stereo not given)
2. Cc1cc(C(C#N)c2ccc(Cl)cc2)c(Cl)cc1NC(=O)c1cc(I)cc(I)c1O (stereo not given)
3. C#C[C@]1(O)CC[C@H]2[C@@H]3CCC4=CC(=O)CC[C@]4(C)[C@H]3CC[C@@]21C
4. OC(c1ccccc1)(c1ccccc1)C1CCNCC1
5. CCN(C)C(=O)Oc1cccc([C@H](C)N(C)C)c1
6. CCCCCCCCCCCCCCCC[n+]1ccccc1

**A:**
1: 1.15; 2: -0.728; 3: 1.6; 4: -0.475; 5: 1.41; 6: 59.6

Would you mind listing growth inhibition for each of the following molecules?
1. NCC(CC(=O)O)c1ccc(Cl)cc1 (stereo not given)
2. Cc1cccc(C)c1NC(=O)CN1CCCC1=O
3. N.N.[Cl][Pt][Cl]

**A:**
[0.323, -0.565, -0.146]

Would you mind listing growth inhibition for each of the following molecules?
1. C[N+](C)(C)CCCCCCCCCC[N+](C)(C)C
2. C/C=C(\C)C(=O)N[C@@H](c1ccccc1)[C@@H](O)C(=O)O[C@H]1C[C@@]2(O)[C@@H](OC(=O)c3ccccc3)[C@@H]3[C@]4(OC(C)=O)CO[C@@H]4C[C@H](O)[C@@]3(C)C(=O)[C@H](OC(C)=O)C(=C1C)C2(C)C
3. Cc1cccc(C)c1NC1=NCCCS1
4. O=C(O)c1nn(Cc2ccc(Cl)cc2Cl)c2ccccc12
5. CC(O)(CS(=O)(=O)c1ccc(F)cc1)C(=O)Nc1ccc(C#N)c(C(F)(F)F)c1 (stereo not given)

**A:**
1: 3.26; 2: 33.6; 3: -0.494; 4: 1.2; 5: 1.55

Would you mind listing growth inhibition for each of the following molecules?
1. C[N+]1(C)CCCC(OC(=O)C(O)(c2ccccc2)c2ccccc2)C1 (stereo not given)
2. CC(=O)OC12COC1CC(O)C1(C)C(=O)C(O)C3=C(C)C(O)CC(O)(C(OC(=O)c4ccccc4)C21)C3(C)C (stereo not given)
3. CN(C)C(=O)Oc1cccc([N+](C)(C)C)c1
4. CN1c2ccccc2C(NCCCCCCC(=O)O)c2ccc(Cl)cc2S1(=O)=O (stereo not given)
5. CCC1(C)CC(=O)NC(=O)C1
6. CNCC(=O)c1ccc(O)c(O)c1
7. N[C@@H]1C[C@H]1c1ccccc1.N[C@H]1C[C@@H]1c1ccccc1
8. CN(C)C(=O)Oc1ccc[n+](C)c1

**A:**
1. -0.329
2. 14.7
3. -0.512
4. -0.419
5. -4.36
6. 0.248
7. 5.28
8. 0.907

Would you mind listing growth inhibition for each of the following molecules?
1. CC[C@@H](C(N)=O)N1CCCC1=O
2. COc1ccc(OC)c(C(O)C(C)N)c1 (stereo not given)
3. C[N+]1(C)[C@@H]2C[C@@H](OC(=O)[C@H](CO)c3ccccc3)C[C@H]1[C@@H]1O[C@@H]12
4. C=CCN.ClCC1CO1 (stereo not given)

**A:**
1: -1.17; 2: 3.05; 3: 2.27; 4: 2.03

Would you mind listing growth inhibition for each of the following molecules?
1. O=P1(NCCCl)OCCCN1CCCl (stereo not given)
2. C[C@]12CC[C@H]3[C@@H](CC[C@@]45O[C@@H]4C(O)=C(C#N)C[C@]35C)[C@@H]1CC[C@@H]2O
3. C=CC[C@]1(O)CC[C@H]2[C@@H]3CCC4=CC(=O)CCC4=C3C=C[C@@]21C

**A:**
3.87
3.74
1.7

Would you mind listing growth inhibition for each of the following molecules?
1. CCCN1C[C@H](CSC)C[C@@H]2c3cccc4[nH]cc(c34)C[C@H]21
2. O=C(O[C@H]1C[C@H]2CC[C@@H](C1)[N+]21CCCC1)C(O)(c1ccccc1)c1ccccc1
3. CC(=O)Nc1cc([As](=O)(O)O)ccc1O
4. O=P1(N(CCCl)CCCl)NCCCO1 (stereo not given)

**A:**
[1.29, -4.77, 0.328, -1.32]
